biological target: PE-labeled human PD-L1-Ig binding to Jurkat cell line over-expressing human PD-1 (Jurkat-PD-1) (Homo sapiens, UniProt Q15116); construct: expressed in transfected cells; host or cells: Jurkat; assay: Jurkat-PD-1 Cell Binding High-Content Screening Assay (CBA): Method 1; conditions: Jurkat-hPD-1 cells, PE-labeled PD-L1-Ig 20 nM final; read-out: Jurkat HPDL1 PD1 IC50 (uM) (Method 1)
Sequence (Q15116 25-288): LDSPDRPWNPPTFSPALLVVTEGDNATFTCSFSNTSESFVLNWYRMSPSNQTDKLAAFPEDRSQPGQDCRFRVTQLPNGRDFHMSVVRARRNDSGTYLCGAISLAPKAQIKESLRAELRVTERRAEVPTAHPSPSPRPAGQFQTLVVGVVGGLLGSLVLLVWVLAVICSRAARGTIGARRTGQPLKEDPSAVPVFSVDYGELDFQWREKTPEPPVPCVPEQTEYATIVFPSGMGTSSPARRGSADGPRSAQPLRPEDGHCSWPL
Bridge positions count the residues as written; N and C are the ends. Square brackets hold non-standard residues; d marks the D form. Peptide text beside a SMILES is read from it. Bip = N[C@@H](Cc1ccc(-c2ccccc2)cc1)C(=O)O; 2Thi = N[C@@H](Cc1cccs1)C(=O)O; Cha = N[C@@H](CC1CCCCC1)C(=O)O; NMeA = CN[C@@H](C)C(=O)O; Dab = NCC[C@H](N)C(=O)O; Dap = NC[C@H](N)C(=O)O

{"COMPOUND": "CC(C)C[C@@H]1NC(=O)[C@H](CCN)NC(=O)[C@@H](CC(C)C)NC(=O)[C@H](C)N(C)C(=O)[C@H](CCCNC(=N)N)NC(=O)[C@H](Cc2ccc(-c3ccccc3)cc2)NC(=O)[C@H](C(C)C)NC(=O)[C@H](Cc2cccs2)NC(=O)[C@H](CC(=O)O)NC(=O)[C@H](Cc2ccc(O)cc2)NC(=O)[C@H](CC(N)=O)NC(=O)CSC[C@@H](C(=O)N[C@@H](C)C(N)=O)NC(=O)[C@H]([C@@H](C)O)NC(=O)[C@H](C(C)C)NC1=O [Compound 1218] ({CH2CO}-NYD[2Thi]V[Bip]R[NMeA][dL][Dab]LVTCA-NH2; thioether N-14)", "UNIT_LABEL": "µM", "IC50": 0.2}
{"COMPOUND": "CC(C)C[C@H]1NC(=O)[C@H](C)N(C)C(=O)[C@H](C(C)C)NC(=O)[C@H](Cc2ccc(-c3ccccc3)cc2)NC(=O)[C@H](C(C)C)NC(=O)[C@H](Cc2c[nH]c3ccccc23)NC(=O)[C@H](CC(=O)O)NC(=O)[C@H](Cc2ccc(O)cc2)NC(=O)[C@H](CN)NC(=O)CSC[C@@H](C(=O)N[C@@H](C)C(N)=O)NC(=O)[C@H]([C@@H](C)O)NC(=O)[C@H](C(C)C)NC(=O)[C@H](CC2CCCCC2)NC(=O)[C@H](CCN)NC1=O [Compound 1506] ({CH2CO}-[Dap]YDWV[Bip]V[NMeA][dL][Dab][Cha]VTCA-NH2; thioether N-14)", "UNIT_LABEL": "µM", "IC50": 0.02}

====

biological target: PE-labeled human PD-L1-Ig binding to Jurkat cell line over-expressing human PD-1 (Jurkat-PD-1) (Homo sapiens, UniProt Q15116); construct: expressed in transfected cells; host or cells: Jurkat; test: Jurkat-PD-1 Cell Binding High-Content Screening Assay (CBA): Method 1; conditions: Jurkat-hPD-1 cells, PE-labeled PD-L1-Ig 20 nM final; read-out: Jurkat HPDL1 PD1 IC50 (uM) (Method 1)
Bridge positions count the residues as written; N and C are the ends. Square brackets hold non-standard residues; d marks the D form. Peptide text beside a SMILES is read from it. Bip = N[C@@H](Cc1ccc(-c2ccccc2)cc1)C(=O)O; NMeA = CN[C@@H](C)C(=O)O; Orn = NCCC[C@H](N)C(=O)O; Dab = NCC[C@H](N)C(=O)O
IC50 by entry:

{"MOLECULE": "CC(C)C[C@@H]1NC(=O)[C@H](CCN)NC(=O)[C@@H](CC(C)C)NC(=O)[C@H](C)N(C)C(=O)[C@H](Cc2ccc(O)cc2)NC(=O)[C@H](Cc2ccc(-c3ccccc3)cc2)NC(=O)[C@H](C(C)C)NC(=O)[C@H](Cc2c[nH]c3ccccc23)NC(=O)[C@H](CC(=O)O)NC(=O)[C@H](Cc2ccc(O)cc2)NC(=O)[C@H](CC(N)=O)NC(=O)CSC[C@@H](C(=O)N[C@@H](C)C(N)=O)NC(=O)[C@H]([C@@H](C)O)NC(=O)[C@H](C(C)C)NC1=O [Compound 1303] ({CH2CO}-NYDWV[Bip]Y[NMeA][dL][Dab]LVTCA-NH2; thioether N-14)", "IC50": "0.07 µM"}
{"MOLECULE": "CC(C)C[C@@H]1NC(=O)[C@H](CCCCN)NC(=O)[C@@H](CC(C)C)NC(=O)[C@H](C)N(C)C(=O)[C@H](CCCNC(=N)N)NC(=O)[C@H](Cc2ccc(-c3ccccc3)cc2)NC(=O)[C@H](C(C)C)NC(=O)[C@H](Cc2c[nH]c3ccccc23)NC(=O)[C@H](CC(=O)O)NC(=O)[C@H](Cc2ccc(O)cc2)NC(=O)[C@H](CC(N)=O)NC(=O)CSC[C@@H](C(=O)N[C@@H](C)C(N)=O)NC(=O)[C@H]([C@@H](C)O)NC(=O)[C@H](C(C)C)NC1=O [Compound 1280] ({CH2CO}-NYDWV[Bip]R[NMeA][dL]KLVTCA-NH2; thioether N-14)", "IC50": "0.08 µM"}
{"MOLECULE": "CC(C)C[C@@H]1NC(=O)[C@H](CCN)NC(=O)[C@@H](CC(C)C)NC(=O)[C@H](C)N(C)C(=O)[C@H](CCCN)NC(=O)[C@H](Cc2ccc(-c3ccccc3)cc2)NC(=O)[C@H](C(C)C)NC(=O)[C@H](Cc2c[nH]c3ccccc23)NC(=O)[C@H](CC(=O)O)NC(=O)[C@H](Cc2ccc(O)cc2)NC(=O)[C@H](Cc2cnc[nH]2)NC(=O)CSC[C@@H](C(=O)N[C@@H](C)C(N)=O)NC(=O)[C@H]([C@@H](C)O)NC(=O)[C@H](C(C)C)NC1=O [Compound 1362] ({CH2CO}-HYDWV[Bip][Orn][NMeA][dL][Dab]LVTCA-NH2; thioether N-14)", "IC50": "0.03 µM"}
{"MOLECULE": "CC[C@H](C)[C@@H]1NC(=O)[C@H](Cc2ccc(-c3ccccc3)cc2)NC(=O)[C@H](C(C)C)NC(=O)[C@H](Cc2c[nH]c3ccccc23)NC(=O)[C@H](CC(=O)O)NC(=O)[C@H](Cc2ccc(O)cc2)NC(=O)[C@H](Cc2ccccc2)NC(=O)CSC[C@@H](C(=O)N[C@@H](C)C(N)=O)NC(=O)[C@H]([C@@H](C)O)NC(=O)[C@H](C(C)C)NC(=O)[C@H](CC(C)C)NC(=O)[C@H](CCN)NC(=O)[C@@H](CC(C)C)NC(=O)[C@H](C)N(C)C1=O [Compound 1393] ({CH2CO}-FYDWV[Bip]I[NMeA][dL][Dab]LVTCA-NH2; thioether N-14)", "IC50": "0.03 µM"}
